# ASSAY SUMMARY: Mouse blood levels after subcutaneous administration
# ASSAY CONTEXT: in vivo, sc, 20 mg/kg
# Method: Mouse blood levels of BB-[…] and BB-[…] were determined by subcutaneous administration of 20 mg/kg of the penicillin to groups of three mice. Blood samples collected from orbital sinuses were assayed by the paper disk agar-diffusion method on Sarcina lutea PC1 1001 plates.
METRIC: concentration at 0.5 h (ng/mL)
Field format: number, assumed ng/mL, no unit text.

Worked cases, answers included:
CC1(C)S[C@@H]2[C@H](NC(=O)[C@H](NC(=O)c3cnc4ccc(O)nn4c3=O)c3ccc(O)cc3)C(=O)N2[C@H]1C(=O)O [BB-P642]
13500
CC1(C)S[C@@H]2[C@H](NC(=O)[C@H](NC(=O)c3cnc4ccc(O)nn4c3=O)c3ccccc3)C(=O)N2[C@H]1C(=O)O [BB-P598]
900

### Prompt Give its concentration at 0.5 h value. Item: CC1(C)S[C@@H]2[C@H](NC(=O)C(C(=O)O)c3ccccc3)C(=O)N2[C@H]1C(=O)O (stereo partly drawn) [Carbenicillin, reference compound]
### Response 9000

* * *

# ASSAY SUMMARY: Mouse blood levels after subcutaneous administration
# ASSAY CONTEXT: in vivo, sc, 20 mg/kg
Collected concentration at 1 h values appear next to each entry.
// units = ng/mL; emit number, no label

CC1(C)S[C@@H]2[C@H](NC(=O)C(C(=O)O)c3ccccc3)C(=O)N2[C@H]1C(=O)O (some centres unmarked) [Carbenicillin, reference compound]
5800

For the next question, use this molecule.
### Prompt Fill blank: measured concentration at 1 h of the molecule CC1(C)S[C@@H]2[C@H](NC(=O)[C@H](NC(=O)c3cnc4ccc(O)nn4c3=O)c3ccc(O)cc3)C(=O)N2[C@H]1C(=O)O is ____.
### Response 5200
